Data provenance: PubChem BioAssay AID2060902

# Tested on: 485368-065-R3-J5-PDC spheroids with HUVEC/MSC, viability
# experiment: Anticancer human tumor 485368-065-R3-J5-PDC patient-derived pancreatic carcinoma cell line growth inhibition [RAS]
# measurementContext: curve of first compound; second compound 0.1 µM
pIC50: −log10 of the molar value.
pIC50 by entry:

[
  {
    "compound": "CC(C)n1nc(-c2ccc3oc(N)nc3c2)c2c(N)ncnc21 + C=CC(=O)N1CCN(c2nc(OCC3CCCN3C)nc3c(F)c(-c4nc(N)cc(C)c4C(F)(F)F)c(Cl)cc23)C(C)C1",
    "readoutRelation": "=",
    "pIC50": 7.71
  },
  {
    "compound": "CCC(CC)c1cc(NC2CCC(N)C2)n2nccc2n1 (stereo not given) + C#Cc1c(F)ccc2cc(O)cc(-c3ncc4c(N5CC6CCC(C5)N6)nc(OCC56CCCN5CC(F)C6)nc4c3F)c12",
    "readoutRelation": "=",
    "pIC50": 5.71
  },
  {
    "compound": "NC1c2ccccc2OC12CCN(c1cnc3c(N4CCCc5ncccc54)n[nH]c3n1)CC2 (stereo not given) + C=CC(=O)N1CCN(c2nc(OCC3CCCN3C)nc3c(F)c(-c4nc(N)cc(C)c4C(F)(F)F)c(Cl)cc23)C(C)C1",
    "readoutRelation": "<",
    "pIC50": 5.00
  },
  {
    "compound": "CCN1CCN(Cc2ccc(Nc3ncc(F)c(-c4cc(F)c5nc(C)n(C(C)C)c5c4)n3)nc2)CC1 + C#Cc1c(F)ccc2cc(O)cc(-c3ncc4c(N5CC6CCC(C5)N6)nc(OCC56CCCN5CC(F)C6)nc4c3F)c12",
    "readoutRelation": "=",
    "pIC50": 6.50
  },
  {
    "compound": "Cc1nc(N2CCC3(CC2)COC(C)C3N)c(CO)nc1Sc1ccnc(N)c1Cl (stereo not given) + C#Cc1c(F)ccc2cc(O)cc(-c3ncc4c(N5CC6CCC(C5)N6)nc(OCC56CCCN5CC(F)C6)nc4c3F)c12",
    "readoutRelation": "<",
    "pIC50": 5.00
  }
]

---

# System: 485368-065-R3-J5-PDC spheroids with HUVEC/MSC, viability
# experiment: Anticancer human tumor 485368-065-R3-J5-PDC cell line growth inhibition [RAS];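 also: spheroids exposed to agents for seven days before readout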
# measurementContext: second compound 0.3 µM; first compound 1 µM; stronger effect = lower value
Reported viability, T/C values are given for each entry in this list.

[
  {
    "compound": "Cc1nc(N2CCC3(CC2)COC(C)C3N)c(CO)nc1Sc1ccnc(N)c1Cl (centres undefined) + CCn1c(-c2cc(N3CCN(C)CC3)cnc2C(C)OC)c2c3cc(ccc31)-c1csc(n1)CC(NC(=O)C1CC1C)C(=O)N1CCCC(N1)C(=O)OCC(C)(C)C2",
    "viability, T/C": "2.89%"
  },
  {
    "compound": "O=C(c1ccc(F)c(F)c1Nc1ccc(I)cc1F)N1CC(O)([C@@H]2CCCCN2)C1 + CCn1c(-c2cccnc2C(C)OC)c2c3cc(ccc31)N1CCOC(CC(NC(=O)C(C(C)C)N(C)C(=O)C3(F)CCN(C(=O)C#CC(C)(C)N(C)C)CC3)C(=O)N3CCCC(N3)C(=O)OCC(C)(C)C2)C1",
    "viability, T/C": "8.18%"
  },
  {
    "compound": "CCN1CCN(Cc2ccc(Nc3ncc(F)c(-c4cc(F)c5nc(C)n(C(C)C)c5c4)n3)nc2)CC1 + CCn1c(-c2cc(N3CCN(C)CC3)cnc2C(C)OC)c2c3cc(ccc31)-c1csc(n1)CC(NC(=O)C1CC1C)C(=O)N1CCCC(N1)C(=O)OCC(C)(C)C2",
    "viability, T/C": "15.2%"
  },
  {
    "compound": "NC1c2ccccc2OC12CCN(c1cnc3c(N4CCCc5ncccc54)n[nH]c3n1)CC2 (centres undefined) + CCn1c(-c2cccnc2C(C)OC)c2c3cc(ccc31)N1CCOC(CC(NC(=O)C(C(C)C)N(C)C(=O)C3(F)CCN(C(=O)C#CC(C)(C)N(C)C)CC3)C(=O)N3CCCC(N3)C(=O)OCC(C)(C)C2)C1",
    "viability, T/C": "81.1%"
  }
]

---

We begin with a simple list: items and their reported viability, T/C.
# System: 485368-065-R3-J5-PDC spheroids with HUVEC/MSC, viability
# experiment: Anticancer human tumor 485368-065-R3-J5-PDC cell line growth inhibition [RAS];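 also: spheroids exposed to agents for seven days before readout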
# measurementContext: second compound 0.00316 µM; first compound 1 µM; stronger effect = lower value
# From the text: RAS pathway inhibitors in Combinations in Complex Spheroids A high-throughput screen of multi-cell type tumor spheroids was designed to identify active combinations of RAS pathway inhibitors and targeted small molecules. Complex spheroids include a stromal component modeled by human endothelial cells (HUVEC) and fibroblasts modeled by human mesenchymal stem cells (MSCs). […] Compounds. […] If the clinical Cmax for an agent had not been determined, the highest concentration tested was 10 microM. […]
outcomeMeasure: viability, T/C (%)

[
  {
    "molecule": "NC1c2ccccc2OC12CCN(c1cnc3c(N4CCCc5ncccc54)n[nH]c3n1)CC2 (centres undefined) + C=CC(=O)N1CCN(c2nc(OCC3CCCN3C)nc3c(F)c(-c4nc(N)cc(C)c4C(F)(F)F)c(Cl)cc23)C(C)C1",
    "targetSystem": "485368-065-R3-J5-PDC spheroids with HUVEC/MSC, viability",
    "unit": "%",
    "testResult": 72.2
  },
  {
    "molecule": "CCC(CC)c1cc(NC2CCC(N)C2)n2nccc2n1 (centres undefined) + C=CC(=O)N1CCN(c2nc(OCC3CCCN3C)nc3c(F)c(-c4nc(N)cc(C)c4C(F)(F)F)c(Cl)cc23)C(C)C1",
    "targetSystem": "485368-065-R3-J5-PDC spheroids with HUVEC/MSC, viability",
    "unit": "%",
    "testResult": 133
  },
  {
    "molecule": "CCN1CCN(Cc2ccc(Nc3ncc(F)c(-c4cc(F)c5nc(C)n(C(C)C)c5c4)n3)nc2)CC1 + C=CC(=O)N1CCN(c2nc(OCC3CCCN3C)nc3c(F)c(-c4nc(N)cc(C)c4C(F)(F)F)c(Cl)cc23)C(C)C1",
    "targetSystem": "485368-065-R3-J5-PDC spheroids with HUVEC/MSC, viability",
    "unit": "%",
    "testResult": 47
  },
  {
    "molecule": "CC(=O)OC12COC1CC(O)C1(C)C(=O)C(O)C3=C(C)C(OC(=O)C(O)C(NC(=O)OC(C)(C)C)c4ccccc4)CC(O)(C(OC(=O)c4ccccc4)C21)C3(C)C (centres undefined) + C=CC(=O)N1CCN(c2nc(OCC3CCCN3C)nc3c(F)c(-c4nc(N)cc(C)c4C(F)(F)F)c(Cl)cc23)C(C)C1",
    "targetSystem": "485368-065-R3-J5-PDC spheroids with HUVEC/MSC, viability",
    "unit": "%",
    "testResult": 12.9
  }
]

---

# Test system: 485368-065-R3-J5-PDC spheroids with HUVEC/MSC, viability
# experiment: Anticancer human tumor 485368-065-R3-J5-PDC cell line growth inhibition [RAS];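 also: spheroids exposed to agents for seven days before readout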
# measurementContext: curve of first compound; second compound 0.01 µM
# Excerpt: RAS pathway inhibitors in Combinations in Complex Spheroids A high-throughput screen of multi-cell type tumor spheroids was designed to identify active combinations of RAS pathway inhibitors and targeted small molecules. Complex spheroids include a stromal component modeled by human endothelial cells (HUVEC) and fibroblasts modeled by human mesenchymal stem cells (MSCs). […] Compounds. […] If the clinical Cmax for an agent had not been determined, the highest concentration tested was 10 microM. […]
pIC50: −log10 of the molar value.
Here the recorded pIC50 is given for each entry.

[
  {
    "compound": "CC(C)n1nc(-c2ccc3oc(N)nc3c2)c2c(N)ncnc21 + C=CC(=O)N1CCN(c2nc(OCC3CCCN3C)nc3c(F)c(-c4nc(N)cc(C)c4C(F)(F)F)c(Cl)cc23)C(C)C1",
    "targetSystem": "485368-065-R3-J5-PDC spheroids with HUVEC/MSC, viability",
    "readoutRelation": "=",
    "pIC50": 7.84
  },
  {
    "compound": "Cc1nc(N2CCC3(CC2)COC(C)C3N)c(CO)nc1Sc1ccnc(N)c1Cl (stereo not drawn) + C=CC(=O)N1CCN(c2nc(OCC3CCCN3C)nc3c(F)c(-c4nc(N)cc(C)c4C(F)(F)F)c(Cl)cc23)C(C)C1",
    "targetSystem": "485368-065-R3-J5-PDC spheroids with HUVEC/MSC, viability",
    "readoutRelation": "=",
    "pIC50": 5.11
  },
  {
    "compound": "C=CC(=O)Nc1cc(Nc2nccc(-c3cn(C)c4ccccc34)n2)c(OC)cc1N(C)CCN(C)C + C=CC(=O)N1CCN(c2nc(OCC3CCCN3C)nc3c(F)c(-c4nc(N)cc(C)c4C(F)(F)F)c(Cl)cc23)C(C)C1",
    "targetSystem": "485368-065-R3-J5-PDC spheroids with HUVEC/MSC, viability",
    "readoutRelation": "<",
    "pIC50": 6.00
  }
]
